experiment: Thermodynamic solubility of voruciclib HCl by the shake-flask method (HPLC); type: physicochemical; conditions: 1-propanol, organic solvent or mixture, thermodynamic from solid, 1-Propanol; RT, 24 h, amorphous API, HPLC; read-out: Solubility
Structures can show the parent of a compound that is named as a salt.
MEASURED_QUANTITY: solubility at 24 h (mg/mL)
Numbers only, in mg/mL.

Request: Consider the compound CN1CC[C@@H](c2c(O)cc(O)c3c(=O)cc(-c4ccc(C(F)(F)F)cc4Cl)oc23)[C@@H]1CO [voruciclib HCl] and give its recorded solubility at 24 h.
Result: 34

====

experiment: Thermodynamic solubility of voruciclib HCl by the shake-flask method (HPLC); assay type: physicochemical; details: dichloromethane, organic solvent or mixture, thermodynamic from solid, Dichloromethane; RT, 24 h, amorphous API, HPLC; read-out: Solubility
Where a name gives a salt, the structure may show the parent alone.
MEASURED_QUANTITY: solubility at 24 h (µg/mL)
One number for each entry, in µg/mL.

Request: Consider the compound CN1CC[C@@H](c2c(O)cc(O)c3c(=O)cc(-c4ccc(C(F)(F)F)cc4Cl)oc23)[C@@H]1CO [voruciclib HCl] and give its recorded solubility at 24 h.
Result: 500
